Can you tell me max response, negative = inhibition for the items I'm about to list?
- Target of assay: Serine/threonine-protein kinase PLK1 (Homo sapiens) (UniProt P53350)
- Sequence (P53350 whole entry, looked up, the tested form may be a part): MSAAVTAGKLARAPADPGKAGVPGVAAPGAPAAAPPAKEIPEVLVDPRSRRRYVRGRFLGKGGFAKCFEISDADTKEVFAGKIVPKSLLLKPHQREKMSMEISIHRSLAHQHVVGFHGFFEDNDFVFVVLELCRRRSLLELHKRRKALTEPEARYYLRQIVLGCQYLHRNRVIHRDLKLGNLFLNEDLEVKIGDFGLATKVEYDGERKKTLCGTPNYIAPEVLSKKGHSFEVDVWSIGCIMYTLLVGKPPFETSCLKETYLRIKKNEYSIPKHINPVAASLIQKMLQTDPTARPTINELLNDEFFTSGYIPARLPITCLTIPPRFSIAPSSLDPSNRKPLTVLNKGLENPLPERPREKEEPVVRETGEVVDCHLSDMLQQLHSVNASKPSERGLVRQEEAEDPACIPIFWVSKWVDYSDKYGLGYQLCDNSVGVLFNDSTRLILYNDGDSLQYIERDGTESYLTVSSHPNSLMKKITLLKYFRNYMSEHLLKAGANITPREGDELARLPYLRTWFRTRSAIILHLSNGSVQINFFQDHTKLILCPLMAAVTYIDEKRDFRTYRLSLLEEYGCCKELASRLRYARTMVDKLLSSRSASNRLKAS
- Protocol details: qHTS for Inhibitors of PLK1-PDB (polo-like kinase 1 - polo-box domain): Primary Screen; also: series mostly up to about 57 µM; % is scaled to controls: 0 for no effect and ±100 for the full control effect; nearly all actives have a fitted effect of over 65% in size
- Applied conditions: Plk1 PBD binding of FITC phosphopeptide, fluorescence polarization
The campaign covered roughly 360,000 compounds. About 10,000 (2.8%) were called active. About 4% were inconclusive and are not listed. This is one part of a sample in which actives are shown more often than they occur.
Answers are plain numbers, in %.

Would you please look over these solved cases?
| Compound | max response, negative = inhibition [%] |
| --- | --- |
| CN(Cc1ccc(C(F)(F)F)cc1)C(=O)[C@H]1O[C@@H](n2cnc3c(N)ncnc32)[C@H](O)[C@@H]1O | -3.67 |
| O=C(Nc1ccc(Cl)cn1)c1ccccc1-c1ccccc1 | -6.02 |

Quick request: max response, negative = inhibition for each listed item, please.
1. CCc1cccc(C)c1NC(=O)CSc1nnc(-c2ccco2)n1N
2. C[C@H]1CN([C@@H](C)CO)C(=O)c2cc(C3=CCCCC3)cnc2O[C@@H]1CN(C)C(=O)Cc1ccccc1
3. O=C(OC1CC2CC1[C@H]1CCCCN1C2=O)N1CCOCC1 (stereo not given in full)

Result:
1: -0.459; 2: -26.3; 3: -1.86

###

- Target of assay: Serine/threonine-protein kinase PLK1 (Homo sapiens) (UniProt P53350)
- Protocol details: qHTS for Inhibitors of PLK1-PDB (polo-like kinase 1 - polo-box domain): Primary Screen; also: series mostly up to about 57 µM; % is scaled to controls: 0 for no effect and ±100 for the full control effect; nearly all actives have a fitted effect of over 65% in size
- Applied conditions: Plk1 PBD binding of FITC phosphopeptide, fluorescence polarization
In all, about 360,000 compounds went through this assay and about 10,000 (2.8%) were called active. Inconclusive results (about 4%) are left out. Only a selection was taken, and actives are over-represented in it overall.
Can you tell me max response, negative = inhibition for the items I'm about to list?
Give bare numbers, in %.

Would you please look over these solved cases?
| Molecule | Endpoint label | Units of measure | Recorded number |
| --- | --- | --- | --- |
| CC(C)(C)C(=O)c1cnc(Nc2ccccc2)s1 | max response, negative = inhibition | % | -4.38 |
| CC(=O)NC(c1cccc(F)c1)c1nc(-c2cccc(F)c2)cs1 (stereo not given) | max response, negative = inhibition | % | -0.575 |
| O=c1cnnc(Nc2ccccc2)[nH]1 | max response, negative = inhibition | % | -9.72 |
| CC(Sc1nnc(COc2ccccc2)n1-c1ccccc1)C(=O)O (stereo not given) | max response, negative = inhibition | % | -5.44 |
| C[C@@H]1CN([C@H](C)CO)C(=O)c2cc(-c3ccc(F)cc3)cnc2O[C@H]1CN(C)C(=O)c1ccc(F)cc1 | max response, negative = inhibition | % | -26.3 |
| O=C(COc1ccccc1)Nc1ccc(F)cc1 | max response, negative = inhibition | % | -17.9 |
| C[C@@H]1CCCCO[C@H](CN(C)Cc2ccccc2)[C@@H](C)CN([C@H](C)CO)C(=O)c2cc(NS(=O)(=O)c3ccc(Cl)cc3)ccc2O1 | max response, negative = inhibition | % | -7.57 |
| CCOC(=O)[C@]12CCCC=C1N(CCC1=CCCCC1)C(=O)[C@H](CC(=O)NCCCCc1ccccc1)C2 | max response, negative = inhibition | % | -2.05 |

Quick request: max response, negative = inhibition for each listed item, please.
1. COc1cccc(CNc2nc(NCc3ccccc3OC)nc3ccsc23)c1
2. CC(=O)C[C@@H]1OC[C@H](C)N1S(=O)(=O)c1ccc(C)cc1

Result:
5.58
-5.26
